Readings of melting point for the listed molecules
Structures can show the parent of a compound that is named as a salt.
metric name: melting point

molecule	metric name	meas value
CC(C)NC(=N)c1ccc(OCCCCCCOc2ccc(-c3cc4cc(C(=N)NC(C)C)ccc4o3)cc2)cc1.Cl.Cl	melting point	288 to 291 °C
CONC(=N)c1ccc2oc(CCCCc3cc4cc(C(=N)NOC)ccc4o3)cc2c1 (as salt: HCl)	melting point	248 to 250 °C (dec.)
CONC(=N)c1ccc2oc(CCc3cc4cc(C(=N)NOC)ccc4o3)cc2c1 (as salt: HCl)	melting point	245 to 246 °C (dec.)
Cl.Cl.c1cc(C2=NCCN2)ccc1OCCCCOc1ccc(-c2cc3cc(C4=NCCN4)ccc3o2)cc1	melting point	291 to 293 °C
N=C(NO)c1cccc(-c2cc3ccc(C(=N)NO)cc3o2)c1 (as salt: HCl)	melting point	210 °C (dec.)
Cl.Cl.c1cc(OCCCOc2ccc(C3=NCCN3)cc2)cc(-c2cc3ccc(C4=NCCN4)cc3o2)c1	melting point	208 to 211 °C
Cl.Cl.c1cc2oc(CCCc3cc4cc(C5=NCCN5)ccc4o3)cc2cc1C1=NCCN1	melting point	203 to 205 °C
c1cc(OCCCCCCOc2ccc(C3=NCCN3)cc2)cc(-c2cc3cc(C4=NCCN4)ccc3o2)c1 (as salt: salt)	melting point	178 to 182 °C
Cl.Cl.c1cc(C2=NCCN2)c2cc(Cc3cc4c(C5=NCCN5)cccc4o3)oc2c1	melting point	333 to 335 °C
CC(C)NC(=N)c1ccc(OCCCCCOc2ccc(-c3cc4cc(C(=N)NC(C)C)ccc4o3)cc2)cc1.Cl.Cl	melting point	260 to 263 °C
Cl.Cl.c1cc(OCCCCCOc2ccc(C3=NCCN3)cc2)cc(-c2cc3ccc(C4=NCCN4)cc3o2)c1	melting point	188 to 190 °C
CC(C)NC(=N)c1ccc(OCCCCCCOc2cccc(-c3cc4cc(C(=N)NC(C)C)ccc4o3)c2)cc1.Cl.Cl	melting point	224 to 227 °C
Cl.Cl.N=C(N)c1ccc(OCCCCCOc2cccc(-c3cc4ccc(C(=N)N)cc4o3)c2)cc1	melting point	178 to 182 °C
CC(C)NC(=N)c1ccc(OCCCOc2ccc(-c3cc4cc(C(=N)NC(C)C)ccc4o3)cc2)cc1.Cl.Cl	melting point	301 to 302 °C
Cl.Cl.c1cc(C2=NCCN2)ccc1OCCCOc1ccc(-c2cc3ccc(C4=NCCN4)cc3o2)cc1	melting point	283 to 284 °C
Cl.Cl.c1cc(C2=NCCN2)ccc1OCCCCCCOc1ccc(-c2cc3cc(C4=NCCN4)ccc3o2)cc1	melting point	275 to 277 °C
Cl.Cl.N=C(N)c1ccc2cc(CCCc3cc4ccc(C(=N)N)cc4o3)oc2c1	melting point	> 300 °C (dec.)
Cl.Cl.c1cc2oc(CCCCCc3cc4cc(C5=NCCN5)ccc4o3)cc2cc1C1=NCCN1	melting point	155 to 157 °C
Cl.Cl.N=C(N)c1ccc2cc(CCCCCc3cc4ccc(C(=N)N)cc4o3)oc2c1	melting point	243 to 245 °C (dec.)
Cl.Cl.c1cc(OCCCOc2ccc(C3=NCCN3)cc2)cc(-c2cc3cc(C4=NCCN4)ccc3o2)c1	melting point	193 to 197 °C
Cl.Cl.N=C(N)c1ccc(OCCCCCOc2ccc(-c3cc4cc(C(=N)N)ccc4o3)cc2)cc1	melting point	290 °C (dec.)
CC(C)NC(=N)c1ccc(OCCCCOc2ccc(-c3cc4ccc(C(=N)NC(C)C)cc4o3)cc2)cc1.Cl.Cl	melting point	280 to 283 °C
CC(C)NC(=N)c1ccc(OCCCOc2cccc(-c3cc4cc(C(=N)NC(C)C)ccc4o3)c2)cc1.Cl.Cl	melting point	205 to 208 °C
Cl.Cl.N=C(N)c1ccc(OCCCCCCOc2ccc(-c3cc4ccc(C(=N)N)cc4o3)cc2)cc1	melting point	310 to 311 °C
Cl.Cl.c1cc(C2=NCCN2)ccc1OCCCOc1ccc(-c2cc3cc(C4=NCCN4)ccc3o2)cc1	melting point	262 to 263 °C
Cl.Cl.N=C(N)c1ccc(OCCCCCCOc2ccc(-c3cc4cc(C(=N)N)ccc4o3)cc2)cc1	melting point	310 to 311 °C
Cl.Cl.c1cc(C2=NCCN2)ccc1OCCCCOc1ccc(-c2cc3ccc(C4=NCCN4)cc3o2)cc1	melting point	306 to 307 °C
Cl.Cl.c1cc(OCCCCCCOc2ccc(C3=NCCN3)cc2)cc(-c2cc3ccc(C4=NCCN4)cc3o2)c1	melting point	182 to 186 °C
Cl.Cl.N=C(N)c1ccc(OCCCCOc2ccc(-c3cc4ccc(C(=N)N)cc4o3)cc2)cc1	melting point	324 to 325 °C
Cl.Cl.N=C(N)c1ccc2cc(CCc3cc4ccc(C(=N)N)cc4o3)oc2c1	melting point	362 °C (dec.)

###

system: Plasmodium falciparum; assay: Anti-protozoan data: P. falcip. IC50; type: cell-based; conditions: Tables VI(a), VI(c), read-out: P. falcip. IC50
pIC50: −log10 of the molar value.
pIC50 of 7 or higher: 1. Under 7: -1.

compound	class label
Cl.Cl.c1cc(C2=NCCN2)ccc1OCCCOc1ccc(-c2cc3cc(C4=NCCN4)ccc3o2)cc1 [Compound 46, dihydrochloride]	1
CC(C)NC(=N)c1ccc(OCCCCCCOc2cccc(-c3cc4cc(C(=N)NC(C)C)ccc4o3)c2)cc1.Cl.Cl [Compound 42, dihydrochloride]	-1
CC(C)NC(=N)c1ccc(OCCCCCCOc2ccc(-c3cc4ccc(C(=N)NC(C)C)cc4o3)cc2)cc1.Cl.Cl [Compound 78, dihydrochloride]	1
Cl.Cl.N=C(N)c1ccc(OCCCCCOc2ccc(-c3cc4cc(C(=N)N)ccc4o3)cc2)cc1 [Compound 50, dihydrochloride]	-1
Cl.Cl.c1cc(OCCCCCOc2ccc(C3=NCCN3)cc2)cc(-c2cc3ccc(C4=NCCN4)cc3o2)c1 [Compound 64, dihydrochloride]	1
Cl.Cl.N=C(N)c1ccc(OCCCCCOc2ccc(-c3cc4ccc(C(=N)N)cc4o3)cc2)cc1 [Compound 74, dihydrochloride]	-1
Cl.Cl.c1cc(OCCCCCCOc2ccc(C3=NCCN3)cc2)cc(-c2cc3ccc(C4=NCCN4)cc3o2)c1 [Compound 67, dihydrochloride]	1
Cl.Cl.N=C(N)c1ccc(OCCCCCCOc2cccc(-c3cc4ccc(C(=N)N)cc4o3)c2)cc1 [Compound 65, dihydrochloride]	-1
Cl.Cl.N=C(N)c1ccc(OCCCCCCOc2ccc(-c3cc4cc(C(=N)N)ccc4o3)cc2)cc1 [Compound 53, dihydrochloride]	-1
Cl.Cl.N=C(N)c1ccc(OCCCCCCOc2cccc(-c3cc4cc(C(=N)N)ccc4o3)c2)cc1 [Compound 41, dihydrochloride]	-1

###

tested on: DNA; assay: DNA binding ΔTm; conditions: Tables VI(a), VI(c)
metric name: DNA binding Δ Tm

Cl.Cl.N=C(N)c1ccc(OCCCCCOc2ccc(-c3cc4cc(C(=N)N)ccc4o3)cc2)cc1 12.7
Cl.Cl.N=C(N)c1ccc(OCCCOc2ccc(-c3cc4cc(C(=N)N)ccc4o3)cc2)cc1 18.7
Cl.Cl.c1cc(C2=NCCN2)ccc1OCCCCOc1ccc(-c2cc3cc(C4=NCCN4)ccc3o2)cc1 18.8
CC(C)NC(=N)c1ccc(OCCCCCOc2cccc(-c3cc4cc(C(=N)NC(C)C)ccc4o3)c2)cc1.Cl.Cl 20.8
Cl.Cl.N=C(N)c1ccc(OCCCCCOc2cccc(-c3cc4cc(C(=N)N)ccc4o3)c2)cc1 21.1
Cl.Cl.N=C(N)c1ccc(OCCCOc2cccc(-c3cc4cc(C(=N)N)ccc4o3)c2)cc1 18.7
CC(C)NC(=N)c1ccc(OCCCCCOc2ccc(-c3cc4cc(C(=N)NC(C)C)ccc4o3)cc2)cc1.Cl.Cl 18.7

###

system: Cryptococcus neoformans; assay: Anti-fungal data: Cryptococcus neoformans; assay type: cell-based; conditions: strain H99
Structures can show the parent of a compound that is named as a salt.
Readings of MIC80 for the listed molecules

molecule	unit info	MIC80
CC(C)NC(=N)c1ccc2oc(CCCCc3cc4cc(C(=N)NC(C)C)ccc4o3)cc2c1 [Compound 21, dihydrochloride]	µg/mL	100
Cl.Cl.N=C(N)c1ccc(OCCCCCCOc2ccc(-c3cc4cc(C(=N)N)ccc4o3)cc2)cc1 [Compound 53]	µg/mL	1.56
Cl.Cl.N=C(N)c1ccc2oc(CCc3cc4cc(C(=N)N)ccc4o3)cc2c1 [Compound 8]	µg/mL	100
Cl.Cl.N=C(N)c1ccc(OCCCCCOc2cccc(-c3cc4ccc(C(=N)N)cc4o3)c2)cc1 [Compound 62]	µg/mL	0.39
Cl.Cl.N=C(N)c1ccc(OCCCCCOc2ccc(-c3cc4cc(C(=N)N)ccc4o3)cc2)cc1 [Compound 50]	µg/mL	0.39
Cl.Cl.N=C(N)c1ccc(OCCCCCOc2cccc(-c3cc4cc(C(=N)N)ccc4o3)c2)cc1 [Compound 38]	µg/mL	0.39
Cl.Cl.c1cc(OCCCCCCOc2ccc(C3=NCCN3)cc2)cc(-c2cc3ccc(C4=NCCN4)cc3o2)c1 [Compound 67]	µg/mL	0.781
